ASSAY SUMMARY: Hemolytic activity in sheep RBC assessed as hemolysis at 256 times MIC incubated for 1 hrs relative to control
Type: toxicity, cell-based, Ovis aries, Erythrocyte
ASSAY SETUP: sheep red blood cells, read-out: Activity
OBSERVABLE: hemolysis at 1 h, 256 times MIC

Find the measured hemolysis at 1 h, 256 times MIC of C[n+]1ccc2c3ccccc3n(CCCCCCCCCCCn3c4ccccc4c4cc[n+](C)cc43)c2c1.[I-].[I-] and report it.
< 10%

====

Reported values of MIC for individual entries
Test system: Staphylococcus aureus
ASSAY SUMMARY: Antibacterial activity against methicillin-resistant Staphylococcus aureus clinical isolate M-19 incubated for 14 hrs by two-fold serial dilution method
Type: functional
Give the value, in units of µg/mL, as a plain number.

- SMILES REPRESENTATION: "C[n+]1ccc2c3ccccc3n(CCCCCCCCCCCCn3c4ccccc4c4cc[n+](C)cc43)c2c1.[I-].[I-]"
  MIC / µg/mL: 1
- SMILES REPRESENTATION: "C[n+]1ccc2c3ccccc3n(CCCCCCCCCCn3c4ccccc4c4cc[n+](C)cc43)c2c1.[I-].[I-]"
  MIC / µg/mL: 2
- SMILES REPRESENTATION: "C[n+]1ccc2c3ccccc3n(CCCCCCCCCCCn3c4ccccc4c4cc[n+](C)cc43)c2c1.[I-].[I-]"
  MIC / µg/mL: 0.5

Could you now consider this next compound?
Name the recorded MIC of the item C[n+]1ccc2c3ccccc3n(CCCCCCCCCn3c4ccccc4c4cc[n+](C)cc43)c2c1.[I-].[I-] in your answer.
4

Data provenance is ChEMBL document CHEMBL6177951.
